Molecular target: chimeric Caspase-9 polypeptide
Sequence (as listed by the source, change not shown): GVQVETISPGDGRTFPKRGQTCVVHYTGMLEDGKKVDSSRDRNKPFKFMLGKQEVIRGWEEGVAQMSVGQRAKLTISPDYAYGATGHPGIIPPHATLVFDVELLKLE
Assay: Caspase mutant classes and basal activity (Table 3)
Assay type: cell-based, human
Details: class heading of Table 3; ligand IC50
Test Readout: IC50

- Molecule: "D330S (protein) GFGDVGALESLRGNADLAYILSMEPCGHCLIINNVNFCRESGLRTRTGSNIDCEKLRRRFSSLHFMVEVKGDLTAKKMVLALLELAQQDHGALDCCVVVILSHGCQASHLQFPGAVYGTDGCPVSVEKIVNIFNGTSCPSLGGKPKLFFIQACGGEQKDHGFEVASTSPEDESPGSNPEPDATPFQEGLRTFDQLSAISSLPTPSDIFVSYSTFPGFVSWRDPKSGSWYVETLDDIFEQWAHSEDLQSLLLRVANAVSVKGIYKQMPGCFNFLRKKLFFKTS"
  Test Readout: "IC50"
  Result: "higher IC50"
- Molecule: "F406W (protein) GFGDVGALESLRGNADLAYILSMEPCGHCLIINNVNFCRESGLRTRTGSNIDCEKLRRRFSSLHFMVEVKGDLTAKKMVLALLELAQQDHGALDCCVVVILSHGCQASHLQFPGAVYGTDGCPVSVEKIVNIFNGTSCPSLGGKPKLFFIQACGGEQKDHGFEVASTSPEDESPGSNPEPDATPFQEGLRTFDQLDAISSLPTPSDIFVSYSTFPGFVSWRDPKSGSWYVETLDDIFEQWAHSEDLQSLLLRVANAVSVKGIYKQMPGCFNWLRKKLFFKTS"
  Test Readout: "IC50"
  Result: "higher IC50"
